Measured protein stability index, listed per entry for reference.
B1: SCNN1D (parent)
chain: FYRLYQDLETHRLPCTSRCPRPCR

# Variants of: B1
# assay-remarks: protein stability index of a GFP-peptide fusion (GPS, HEK-293T) (PSI 1-6); higher = more stable;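 also: lentivirally expressed fusions sorted by FACS into six bins by GFP to DsRed ratio, PSI derived from sequencing read proportions per bin multiplied by bin number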
# assay-setup: c terminus: a fixed tail appended
endpoint-name: protein stability index

1. T16Q : 1.98
2. P22T : 2.25
3. L4H : 3.23
4. R3D : 2.71
5. S17T : 2.61
6. Y5H : 2.92
7. T16D : 2.79
8. D7T : 2.09
9. R18S : 1.94
10. E9T : 1.65
11. F1S : 3.2
12. F1Q : 2.71
13. F1A : 2.87
14. R21E : 2.22
15. P22S : 2.33
16. L13T : 2.97
17. C15M : 1.73
18. F1R : 2.92
19. Y2L : 1.55
20. Q6S : 2.23
21. P22V : 1.8
22. S17Q : 2.45
23. R21V : 1.63
24. P14A : 2.01
25. L13D : 2.19
26. R12W : 2
27. T10S : 1.6
28. Y2W : 2.75
29. L13I : 2.38
30. L4T : 2.79
31. S17F : 1.75
32. T16Y : 1.6
33. E9G : 1.57
34. P20N : 2.13
35. C19W : 3.18
36. Y2Q : 1.98
37. T16K : 1.9
38. R24H : 1.69
39. D7Q : 1.48
40. P22Y : 1.32
41. H11D : 2.24
42. L8N : 3.07
43. P14T : 1.76
44. C23Y : 2.33
45. E9R : 1.58
46. R3I : 1.95
47. S17V : 4.43
48. Y2K : 2.41
49. T10H : 2.34
50. R18V : 1.4
51. R21D : 1.83
52. C15G : 2.47
53. C15F : 2.71
54. Y5G : 3.16
55. D7W : 3
56. R12N : 2.22
57. R3G : 2.65
58. T10Q : 2.3
59. E9Y : 1.5
60. L8K : 2.38
61. L8E : 2.73
62. T10A : 2.27
63. R21W : 2.46
64. H11T : 2.79
65. Y5F : 1.98
66. P20L : 2.27
67. R21M : 1.25
68. Q6D : 2.52
69. S17E : 2.43
70. L13M : 2.24
71. P14D : 2.06
72. L4P : 3.47
73. T10G : 2.19
74. T10Y : 1.6
75. L8W : 1.7
76. S17G : 1.96
